Test system: TK-10
test-description: NCI tumour cell line growth inhibition, 48 h
Activity calls are given as the source filed them. Cut-off read from the data, not from the text of the source: active = GI50 up to about 1.1 µM and inactive = higher.
result-type: GI50

molecule=C[C@@H]1[C@@H](c2ccccc2)O[B-](c2ccccc2)(c2ccccc2)N1C val="32.8 µM (inactive)"
molecule=COc1cccc(-c2cc(C(=O)Nc3ccc(Cl)cc3)nc(N)n2)c1 val="> 100 µM (inactive)"

Ask: Name the recorded GI50 for N=c1c2ccccc2nc2oc3cc([N+](=O)[O-])ccc3n12 .
Reply: 19.6 µM (inactive)

---

Tested on: HOP-62
test-description: NCI tumour cell line growth inhibition, 48 h
Calls of active or inactive are those of the source. Cut-off read from the data, not from the text of the source: active = GI50 up to about 1.1 µM and inactive = higher.
result-type: GI50

Ask: Name the recorded GI50 for O=C(C=P(c1ccccc1)(c1ccccc1)c1ccccc1)c1ccc(-c2cccc([N+](=O)[O-])c2)cc1 .
Reply: 5.86 µM (inactive)

Ask: Name the recorded GI50 for CN(C)S(=O)(=O)n1cnc(CO)c1 .
Reply: > 100 µM (inactive)

Ask: Name the recorded GI50 for CCCCOC(=O)C1CN2C=CC=NC2=NC1(C(F)(F)F)C(F)(F)F (stereo unspecified) .
Reply: > 100 µM (inactive)

Ask: Name the recorded GI50 for CCOC(=O)/C=C(\N=P(c1ccccc1)(c1ccccc1)c1ccccc1)C(F)(F)C(F)(F)C(F)(F)C(F)(F)C(F)(F)F .
Reply: > 100 µM (inactive)

Ask: Name the recorded GI50 for COC(=O)C1=C(OC(=O)c2ccccc2)C(C(=O)OC)[C@]2(O)[C@@H](C(=O)OC)[C@H]1C[C@@H](c1ccccc1)[C@@H]2C(=O)OC (stereo partly specified) .
Reply: 13.2 µM (inactive)

Ask: Name the recorded GI50 for C[C@@]12CC[C@H]3[C@@H]4CCC(=O)N[C@@]4(C)CC[C@@H]3[C@@]1(C)CC[C@H](OC(=O)Cc1ccc(N(CCCl)CCCl)cc1)C2 .
Reply: 16.8 µM (inactive)

Ask: Name the recorded GI50 for CCOC(=O)c1c(Br)c(-c2ccc(Br)cc2)c(Br)n1C .
Reply: 19.9 µM (inactive)

Ask: Name the recorded GI50 for O=C1OCCC1(Cc1ccc(Cl)cc1)Cc1ccc(Cl)cc1 .
Reply: 31.3 µM (inactive)

Ask: Name the recorded GI50 for C1CN2CCN3CCN4CCN1[PH]243 .
Reply: > 100 µM (inactive)

Ask: Name the recorded GI50 for COc1cc(-c2oc3c(OC)c(O)cc(O)c3c(=O)c2OC)ccc1O .
Reply: 3 µM (inactive)

Ask: Name the recorded GI50 for Brc1cccc(/C=N/C23CC4CC(CC(C4)C2)C3)c1 .
Reply: > 100 µM (inactive)

---

System: K562
test-description: NCI tumour cell line growth inhibition, 48 h
Calls of active or inactive are those of the source. Rule as the data show it: active = GI50 up to about 1.1 µM and inactive = higher.
Overview of reported GI50 across a group of compounds:

Known results for compounds:
compound=Cc1c(-c2ccccc2)c(-c2ccc(OCCN(C)C)cc2)n2ccccc12 result_type=GI50 val="1.84 µM (inactive)"
compound=CCOC(=O)CCc1cn2cc(Br)nc(OC)c2n1 result_type=GI50 val="4.75 µM (inactive)"
compound=Cc1c2ccccc2nc2[nH]c3ccncc3c12 result_type=GI50 val="51.5 µM (inactive)"
compound="c1ccc(CN[C@]23C4C5CC6C7C5C2C7[C@@](NCc2ccccc2)(C64)N3Cc2ccccc2)cc1 (stereo not given in full)" result_type=GI50 val="> 100 µM (inactive)"

Ask: Name the recorded GI50 for O=c1c(-c2ccccc2)c(SCCCN2CCN(c3cccc(Cl)c3)CC2)n(-c2ccccc2)c(=S)n1-c1ccccc1 .
Reply: > 100 µM (inactive)
